System: Carboanhydrase IX (Homo sapiens, UniProt Q16790 38-459)
Test Name: cell-based or functional assay
Lab note: anything with MIAPaCa 2/CA9+ IC50 below 20 nM is marked YES; values at 20 nM or higher are marked NO.

Some solved cases for reference:
In plain terms, does Example 327 (antibody, human IgG1, kappa, V domains shown, linker-toxophore on cysteine S) VH: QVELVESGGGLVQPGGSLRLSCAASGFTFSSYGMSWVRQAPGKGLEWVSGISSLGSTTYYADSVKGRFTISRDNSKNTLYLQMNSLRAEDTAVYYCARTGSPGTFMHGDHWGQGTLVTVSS VL: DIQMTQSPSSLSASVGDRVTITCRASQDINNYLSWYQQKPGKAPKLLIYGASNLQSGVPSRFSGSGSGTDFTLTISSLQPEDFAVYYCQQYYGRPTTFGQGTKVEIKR come in under 20 nM for MIAPaCa 2/CA9+ IC50?
YES

Please indicate whether the reported MIAPaCa 2/CA9+ IC50 of Example 288 (antibody, human IgG1, kappa, V domains shown, linker-toxophore on cysteine S) VH: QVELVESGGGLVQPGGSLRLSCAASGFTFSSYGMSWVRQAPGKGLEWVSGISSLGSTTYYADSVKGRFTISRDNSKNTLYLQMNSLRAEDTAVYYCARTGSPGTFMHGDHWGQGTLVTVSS VL: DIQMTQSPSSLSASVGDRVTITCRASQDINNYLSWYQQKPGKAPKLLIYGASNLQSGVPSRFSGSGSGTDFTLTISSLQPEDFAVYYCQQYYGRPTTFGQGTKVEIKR is strictly below 20 nM.
YES

Continuing:
Determine whether this binder shows MIAPaCa 2/CA9+ IC50 lower than 20 nM (ties excluded): Example 323 (antibody, human IgG1, kappa, V domains shown, linker-toxophore on lysine NH) VH: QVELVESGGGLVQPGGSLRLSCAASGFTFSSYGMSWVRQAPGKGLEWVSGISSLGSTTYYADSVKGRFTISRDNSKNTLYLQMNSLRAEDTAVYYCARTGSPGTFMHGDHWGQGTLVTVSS VL: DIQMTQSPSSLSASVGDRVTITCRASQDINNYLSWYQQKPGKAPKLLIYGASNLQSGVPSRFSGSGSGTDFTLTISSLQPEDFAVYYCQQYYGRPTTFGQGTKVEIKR
NO

Dear colleague, could you confirm whether MIAPaCa 2/CA9+ IC50 of Example 325 (antibody, human IgG1, kappa, V domains shown, linker-toxophore on cysteine S) VH: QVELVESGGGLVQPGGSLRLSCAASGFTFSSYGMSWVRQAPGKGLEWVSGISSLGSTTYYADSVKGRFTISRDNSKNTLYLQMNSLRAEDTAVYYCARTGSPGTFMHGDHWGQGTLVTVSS VL: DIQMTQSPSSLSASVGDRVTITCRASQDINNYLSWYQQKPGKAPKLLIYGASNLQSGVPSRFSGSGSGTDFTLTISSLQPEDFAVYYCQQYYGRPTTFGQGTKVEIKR falls below 20 nM? Thanks.
NO

MIAPaCa 2/CA9+ IC50 under 20 nM? Item: Example 299 (antibody, human IgG1, kappa, V domains shown, linker-toxophore on cysteine S) VH: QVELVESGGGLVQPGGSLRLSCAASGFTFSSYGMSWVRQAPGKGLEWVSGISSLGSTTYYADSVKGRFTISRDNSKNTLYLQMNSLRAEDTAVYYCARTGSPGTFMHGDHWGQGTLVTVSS VL: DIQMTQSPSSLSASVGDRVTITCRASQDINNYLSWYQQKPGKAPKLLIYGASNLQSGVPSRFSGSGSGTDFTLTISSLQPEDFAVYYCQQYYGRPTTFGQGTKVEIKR
YES
